Biological target: HLA-A*02:11
Assay: IEDB peptide-MHC binding, purified MHC/direct/fluorescence; filed as Kd, often an IC50 or EC50 that approximates it; bounds were set here for any values at or beyond the usual limits of such assays
Conditions: source organism: Yersinia enterocolitica subsp. enterocolitica 8081
recorded.endpoint: pKd
One number for each entry, as −log10 of the molar value.

Output measured pKd for this item: TLLCGAATA
7.38

---

Biological target: HLA-B*07:02
Experiment: IEDB peptide-MHC binding, purified MHC/competitive/radioactivity; filed as Kd, often an IC50 or EC50 that approximates it; bounds were set here for any values at or beyond the usual limits of such assays
Details: source organism: Triticum aestivum
recorded.endpoint: pKd
Numbers only, as −log10 of the molar value.

Output measured pKd for this item: FPSQQPYL
5.99
